ASSAY_SUMMARY: Dose normalized AUC (0 to infinity) in J:Nu mouse plasma at 60 mg/kg, po qd for 7 days followed by 120 mg/kg, po qd for 5 days from day 8 to 13
Assay type: ADME, organism-based
CONDITION: in vivo
ENDPOINT: AUC/dose
Don't forget the unit after the value.

**Q:** For the compound "Cc1nn(-c2nc(-c3ccc(Cl)c(Cl)c3)c(SC(C)C)s2)c(C(=O)O)c1-c1cc(Cl)cc(Cl)c1" , what AUC/dose is on record?
**A:** 12800 ng·kg·h/mL/mg

---

ASSAY_SUMMARY: Kinetic solubility of the compound in PBS buffer at pH 7.4
Format: physicochemical
CONDITION: read-out: Kinetic_solubility
ENDPOINT: solubility kinetic (µM)
// units = µM; emit number, no label

**Q:** For the compound "Cc1nn(-c2nc(-c3ccc(Cl)c(Cl)c3)c(SC(C)C)s2)c(C(=O)O)c1-c1cc(Cl)cc(Cl)c1" , what solubility kinetic is on record?
**A:** 40.2

From: ChEMBL document CHEMBL4219038
